Catalogue of pIC50 values
# study.system: JAK3 (JH1domain-catalytic) kinase and other members of the JAK family
# measurement.protocol: Test A: IC50 determination against JAK family kinases (Fabian et al. 2005 / Karaman et al. 2008 assay)
# condition.details: 11 point dose response curves in triplicate; JAK family member not given; read-out: Activity (IC50) for JAK Family of Enzymes
pIC50: −log10 of the molar value.

> print(dat)
                                   compound  readout.value
1  N#CC[C@]1(n2cc(-c3cnnc4[nH]ccc34)cn2)C[C@H](C#N)C1 [Compound 60g]         > 5.30
2  N#CC[C@H](c1ccccc1)n1cc(-c2cnnc3[nH]ccc23)cn1 [Compound 67d]         > 5.30
3  CC(C)(C)C(=O)OCn1ccc2c(-c3cn[nH]c3)cnnc21 [Compound 43a]         < 5.00
4  N#CC[C@H](C1CCCC1)n1cc(-c2cnnc3[nH]ccc23)cn1 [Compound 43g]         > 5.30

Could you now consider this next compound?
Entry c1cc2c(-c3cn[nH]c3)cnnc2[nH]1 [Compound 31m] — recorded pIC50 = < 5.00

----------
Catalogue of IC50 values
# study.system: JAK3 (JH1domain-catalytic) kinase and other members of the JAK family
# measurement.protocol: Test A: IC50 determination against JAK family kinases (Fabian et al. 2005 / Karaman et al. 2008 assay)
# condition.details: 11 point dose response curves in triplicate; JAK family member not given; read-out: Activity (IC50) for JAK Family of Enzymes
# Procedure: The ability of a compound of the invention to bind to JAK3 may be determined using pharmacological models which are well known to the art, or using Test A described below. Inhibition constants (IC50s) were determined against JAK3 (JH1domain-catalytic) kinase and other members of the JAK family. Assays were performed as described in Fabian et al. (2005) Nature Biotechnology, vol. 23, p. […] 127 Inhibition constants were determined using 11 point dose response curves which were performed in triplicate. […]

Entry CCOC(C)n1cc(-c2cnnc3[nH]ccc23)cn1 (centres unmarked) [Compound 32c] — recorded IC50 = > 10 µM

Entry CCS(=O)(=O)N1CC(CC#N)(n2cc(-c3cnnc4[nH]ccc34)cn2)C1 [Compound 49c] — recorded IC50 = < 5 µM

Entry N#CCC(C1CCCC1)n1cc(-c2cnnc3[nH]ccc23)cn1 (centres unmarked) [Compound 34j] — recorded IC50 = < 5 µM

Entry N#CCC(CC1CCCC1)n1cc(-c2cnnc3[nH]ccc23)cn1 (centres unmarked) [Compound 51e] — recorded IC50 = < 5 µM

Entry NC(=O)c1c[nH]c2nnnc(O)c12 [Compound 70c] — recorded IC50 = > 10 µM

----------
# study.system: JAK3 (JH1domain-catalytic) kinase and other members of the JAK family
# measurement.protocol: Test A: IC50 determination against JAK family kinases (Fabian et al. 2005 / Karaman et al. 2008 assay)
# Type: binding
# condition.details: 11 point dose response curves in triplicate; JAK family member not given; read-out: Activity (IC50) for JAK Family of Enzymes
# Protocol: The ability of a compound of the invention to bind to JAK3 may be determined using pharmacological models which are well known to the art, or using Test A described below. Inhibition constants (IC50s) were determined against JAK3 (JH1domain-catalytic) kinase and other members of the JAK family. Assays were performed as described in Fabian et al. (2005) Nature Biotechnology, vol. 23, p. […] 127 Inhibition constants were determined using 11 point dose response curves which were performed in triplicate. […]
Catalogue of IC50 values

Recorded results for 8 molecules are shown here.
> print(dat)
                                   molecule                              study.system  quantity  readout.value
1  N#CCC(C1CC1)n1cc(-c2cnnc3[nH]ccc23)cn1 (stereo not drawn) [Compound 53d]  JAK3 (JH1domain-catalytic) kinase and other members of the JAK family      IC50         < 5 µM
2  N#CC[C@H](C1CCCCC1)n1cc(-c2cnnc3[nH]ccc23)cn1 [Compound 58d]  JAK3 (JH1domain-catalytic) kinase and other members of the JAK family      IC50         < 5 µM
3  N#CCC1(n2cc(-c3cnnc4[nH]ccc34)cn2)CCC1 [Compound 55d]  JAK3 (JH1domain-catalytic) kinase and other members of the JAK family      IC50         < 5 µM
4  N#CCC[C@H](C1CCCC1)n1cc(-c2cnnc3[nH]ccc23)cn1 [Compound 62b]  JAK3 (JH1domain-catalytic) kinase and other members of the JAK family      IC50         < 5 µM
5  N#CC[C@H](c1cccc(O)c1)n1cc(-c2cnnc3[nH]ccc23)cn1 [Compound 68f]  JAK3 (JH1domain-catalytic) kinase and other members of the JAK family      IC50         < 5 µM
6  N#CCC(C1CCC1)n1cc(-c2cnnc3[nH]ccc23)cn1 (stereo not drawn) [Compound 54e]  JAK3 (JH1domain-catalytic) kinase and other members of the JAK family      IC50         < 5 µM
7  N#CCC(CC1CCCCC1)n1cc(-c2cnnc3[nH]ccc23)cn1 (stereo not drawn) [Compound 52e]  JAK3 (JH1domain-catalytic) kinase and other members of the JAK family      IC50         < 5 µM
8  N#CCC(C1CCCCC1)n1cc(-c2cnnc3[nH]ccc23)cn1 (stereo not drawn) [Compound 47d]  JAK3 (JH1domain-catalytic) kinase and other members of the JAK family      IC50         < 5 µM

Could you now consider this next molecule?
Entry c1ccc(-c2cnnc3[nH]ccc23)cc1 [Compound 50a, 4-phenyl-7H-pyrrolo[2,3-c]pyridazine] — recorded IC50 = > 10 µM

----------
# study.system: JAK3 (JH1domain-catalytic) kinase and other members of the JAK family
# measurement.protocol: Test A: IC50 determination against JAK family kinases (Fabian et al. 2005 / Karaman et al. 2008 assay)
# Type: binding
# condition.details: 11 point dose response curves in triplicate; JAK family member not given; read-out: Activity (IC50) for JAK Family of Enzymes
pIC50: −log10 of the molar value.
quantity: pIC50

Recorded results for 5 molecules are shown here.
> print(dat)
                                   molecule                              study.system  readout.value
1  N#CC[C@@H](C1CCCC1)n1cc(-c2cnnc3[nH]ccc23)cn1 [Compound 44d]  JAK3 (JH1domain-catalytic) kinase and other members of the JAK family         > 5.30
2  N#CC[C@H](CC1CCCC1)n1cc(-c2cnnc3[nH]ccc23)cn1 [Compound 59d]  JAK3 (JH1domain-catalytic) kinase and other members of the JAK family         > 5.30
3  N#CCC(CC1CC1)n1cc(-c2cnnc3[nH]ccc23)cn1 (centres unmarked) [Compound 57e]  JAK3 (JH1domain-catalytic) kinase and other members of the JAK family         > 5.30
4  N#CCC1(n2cc(-c3cnnc4[nH]ccc34)cn2)CCCC1 [Compound 48d]  JAK3 (JH1domain-catalytic) kinase and other members of the JAK family         > 5.30
5  N#CCC1(n2cc(-c3cnnc4[nH]ccc34)cn2)CCCCC1 [Compound 56d]  JAK3 (JH1domain-catalytic) kinase and other members of the JAK family         > 5.30

Entry N#CCC1(n2cc(-c3cnnc4[nH]ccc34)cn2)COC1 [Compound 46c] — recorded pIC50 = > 5.00

Entry CC(C)(C)OC(=O)N1CC(CC#N)(n2cc(-c3cnnc4[nH]ccc34)cn2)C1 [Compound 45d] — recorded pIC50 = < 5.00

Entry N#CC[C@]1(n2cc(-c3cnnc4[nH]ccc34)cn2)C[C@@H](C#N)C1 [Compound 60f] — recorded pIC50 = > 5.30
